// data source = the supplement of paper PMC10567573

Recorded protein stability index values for a group of variants are listed next.
B1: RHOBTB3 (parent)
chain: QLQSMPSRELASMNLDIVDLLKKA

# Variants of: B1
# procedure details: protein stability index of a GFP-peptide fusion (GPS, HEK-293T) (PSI 1-6); higher = more stable;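 note: lentivirally expressed fusions sorted by FACS into six bins by GFP to DsRed ratio, PSI derived from sequencing read proportions per bin multiplied by bin number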
# stated conditions: c terminus: a fixed tail appended

construct sequence: QNQSMPSRELASMNLDIVDLLKKA [L2N]
protein stability index: 3.71
--
construct sequence: QLQSMPSRELASMNLDIVDLLKKD [A24D]
protein stability index: 4.65
--
construct sequence: QLQSMPSRELASDNLDIVDLLKKA [M13D]
protein stability index: 3.96
--
construct sequence: QLQSMPSRELASMNLDIVDALKKA [L20A]
protein stability index: 3.52
--
construct sequence: QLQSMPSRELASMNLDIVDLLCKA [K22C]
protein stability index: 2.76
--
construct sequence: KLQSMPSRELASMNLDIVDLLKKA [Q1K]
protein stability index: 4.12
--
construct sequence: QLQSMPSRELASMNLDIVDLLDKA [K22D]
protein stability index: 4.32
--
construct sequence: QLQSMPSRELASMNLFIVDLLKKA [D16F]
protein stability index: 2.09
--
construct sequence: QLQSMPSREAASMNLDIVDLLKKA [L10A]
protein stability index: 4.18
--
construct sequence: QLQSMPSRELASMPLDIVDLLKKA [N14P]
protein stability index: 3.78
--
construct sequence: QLQSMPSRELASMNLDIVDLDKKA [L21D]
protein stability index: 4.67
